# TARGET_SYSTEM: ErbB2 WT (Homo sapiens (Human), UniProt P04626)
# Sequence (P04626 23-1255): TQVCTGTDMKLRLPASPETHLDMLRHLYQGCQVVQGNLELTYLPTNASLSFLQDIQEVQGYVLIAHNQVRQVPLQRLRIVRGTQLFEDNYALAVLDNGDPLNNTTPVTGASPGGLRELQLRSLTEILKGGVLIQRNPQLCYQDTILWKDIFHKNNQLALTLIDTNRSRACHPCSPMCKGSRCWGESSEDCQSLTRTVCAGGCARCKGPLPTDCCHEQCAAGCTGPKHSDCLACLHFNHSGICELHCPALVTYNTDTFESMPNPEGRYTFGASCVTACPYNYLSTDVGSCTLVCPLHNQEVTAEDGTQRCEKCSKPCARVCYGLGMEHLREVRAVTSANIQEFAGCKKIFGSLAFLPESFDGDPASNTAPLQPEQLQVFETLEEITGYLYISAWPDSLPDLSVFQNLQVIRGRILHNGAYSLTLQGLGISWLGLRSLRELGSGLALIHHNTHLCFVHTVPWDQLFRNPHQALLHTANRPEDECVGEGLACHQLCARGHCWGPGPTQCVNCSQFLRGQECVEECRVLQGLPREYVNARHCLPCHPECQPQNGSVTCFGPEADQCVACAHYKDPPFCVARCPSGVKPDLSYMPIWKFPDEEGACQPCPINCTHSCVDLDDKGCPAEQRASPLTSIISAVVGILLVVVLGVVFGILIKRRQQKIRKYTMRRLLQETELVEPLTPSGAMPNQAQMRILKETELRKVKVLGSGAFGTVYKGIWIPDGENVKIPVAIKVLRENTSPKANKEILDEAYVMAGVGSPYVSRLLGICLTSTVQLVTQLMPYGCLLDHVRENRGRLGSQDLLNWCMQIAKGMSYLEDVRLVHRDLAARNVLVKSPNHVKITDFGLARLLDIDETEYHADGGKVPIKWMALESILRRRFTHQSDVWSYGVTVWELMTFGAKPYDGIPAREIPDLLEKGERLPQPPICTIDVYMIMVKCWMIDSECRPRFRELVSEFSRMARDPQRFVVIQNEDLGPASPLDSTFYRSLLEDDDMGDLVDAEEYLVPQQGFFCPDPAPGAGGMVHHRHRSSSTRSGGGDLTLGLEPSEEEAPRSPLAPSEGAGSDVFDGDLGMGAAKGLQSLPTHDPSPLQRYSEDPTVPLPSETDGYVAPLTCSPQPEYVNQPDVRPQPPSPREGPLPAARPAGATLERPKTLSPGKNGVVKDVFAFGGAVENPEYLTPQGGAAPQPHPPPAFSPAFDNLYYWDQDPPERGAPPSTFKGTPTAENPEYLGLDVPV
# TEST_NAME: ErbB Enzyme Assay (HTRF KinEASE-TK), Assay 2
# Assay type: biochemical
# STATED_CONDITIONS: ErbB2 WT enzyme assay
OUTCOME_MEASURE: IC50 (nM)

{"COMPOUND": "C=CC(=O)N1CCN(c2ccc3ncnc(Nc4ccc(Oc5ccn6ncnc6c5)c(C)c4F)c3n2)C[C@@H]1C1CCC1 (racemic)", "TARGET_SYSTEM": "ErbB2 WT (Homo sapiens (Human), UniProt P04626)", "NUMERIC_READOUT": 127}

P: C=CC(=O)N1CCN(c2ccc3ncnc(Nc4cc(Cl)c(Oc5ccn6ncnc6c5)cc4F)c3n2)C[C@H]1COC
Q: C=CC(=O)N1CC2(CCN2c2ccc3ncnc(Nc4ccc(Oc5ccn6ncnc6c5)c(C)c4F)c3n2)C1
R: C=CC(=O)N1CCN(c2ccc3ncnc(Nc4ccc(Oc5cnc6c(c5)ncn6C)c(C)c4F)c3n2)CC12CC2
Kindly order the items shown according to IC50, from the highest value down. Form field (ranking): labels in requested order.
R, Q, P
(R: 67.3 nM, Q: 22.4 nM, P: 9.4 nM)

---

# TARGET_SYSTEM: ErbB2 WT (Homo sapiens (Human))
# TEST_NAME: ErbB Enzyme Assay (HTRF KinEASE-TK), Assay 2
# Assay type: biochemical
# STATED_CONDITIONS: ErbB2 WT enzyme
pIC50: −log10 of the molar value.
OUTCOME_MEASURE: pIC50

Take a look at these entries with their results.
{"COMPOUND": "C=CC(=O)N1CCC(Sc2ccc3ncnc(Nc4ccc(Oc5ccn6ncnc6c5)c(Cl)c4F)c3n2)CC1 [Example 62]", "TARGET_SYSTEM": "ErbB2 WT (Homo sapiens (Human))", "NUMERIC_READOUT": 7.82}
{"COMPOUND": "C=CC(=O)N1CCC[C@@H](c2ccc3ncnc(Nc4ccc(Oc5ccc6c(c5)ncn6C)c(C)c4)c3n2)C1 (racemic) [Example 35]", "TARGET_SYSTEM": "ErbB2 WT (Homo sapiens (Human))", "NUMERIC_READOUT": 8.21}
{"COMPOUND": "C=CC(=O)N1CCN(c2ccc3ncnc(Nc4cc(Cl)c(Oc5ccn6ncnc6c5)cc4F)c3n2)CC1 [Example 81]", "TARGET_SYSTEM": "ErbB2 WT (Homo sapiens (Human))", "NUMERIC_READOUT": 7.48}
{"COMPOUND": "C=CC(=O)N1C2CC1CN(c1ccc3ncnc(Nc4cc(C)c(Oc5ccc6c(c5)ncn6C)cc4F)c3n1)C2 [Example 48]", "TARGET_SYSTEM": "ErbB2 WT (Homo sapiens (Human))", "NUMERIC_READOUT": 6.58}
{"COMPOUND": "C=CC(=O)N1CCCCC(c2ccc3ncnc(Nc4ccc(Oc5ccn6ncnc6c5)c(C)c4)c3n2)C1 (stereo not drawn) [Example 204]", "TARGET_SYSTEM": "ErbB2 WT (Homo sapiens (Human))", "NUMERIC_READOUT": 7.88}
{"COMPOUND": "C=CC(=O)N1C[C@H](c2ccc3ncnc(Nc4cc(C)c(Oc5ccc6c(c5)ncn6C)cc4F)c3n2)C[C@H]1C [Example 192]", "TARGET_SYSTEM": "ErbB2 WT (Homo sapiens (Human))", "NUMERIC_READOUT": 6.88}

I: C=CC(=O)N1CC[C@@H](c2ccc3ncnc(Nc4ccc(Oc5ccc6c(c5)ncn6C)c(C)c4F)c3n2)C1 (racemic) [Example 131]
II: C=CC(=O)N1CCC(Oc2ccc3ncnc(Nc4ccc(Oc5ccc6sc(C)nc6c5)c(C)c4)c3n2)CC1 [Example 7]
Returns: the label, I or II , whose recorded pIC50 is the lower number. Label of pick, please.
II

1: C=CC(=O)N1CCN(c2nc3c(Nc4ccc(Oc5ccc6cn(C)nc6c5)c(C)c4)ncnc3cc2OC)CC1 [Example 158]
2: C=CC(=O)N1C[C@H]2CC[C@@H]1CN2c1ccc2ncnc(Nc3ccc(Oc4cnc5c(c4)ncn5C)c(C)c3F)c2n1 [Example 236]
3: C=CC(=O)N1CCN(c2ccc3ncnc(Nc4ccc(Oc5ccn6ncnc6c5)c(Cl)c4F)c3n2)C[C@H]1C(F)(F)F [Example 85]
List items by pIC50 in falling order. A ranking is expressed here by listing the labels in the requested order.
3, 1, 2

Where do these numbers come from? They come from patent US12447153B2.
